Listing of recorded Ragweed plant response rating by entry.
# System: ragweed (common ragweed, Ambrosia elatior)
# assayText: Test A postemergence application, visual injury rating
# Format: in vivo
# reportedConditions: 125 g ai/ha, 0 to 100 scale, 0 no effect, 100 complete control
observable: Ragweed plant response rating

[[record]]
structuresmiles = "COC(=O)Oc1c(C)nn(C)c(=O)c1-c1cccc2cc(C)oc12"
targetorsystem = "ragweed (common ragweed, Ambrosia elatior)"
observable = "Ragweed plant response rating"
testvalue = 60

[[record]]
structuresmiles = "CC(=O)Oc1c(C)nn(C)c(=O)c1-c1ccc(Cl)c2oc(C)cc12"
targetorsystem = "ragweed (common ragweed, Ambrosia elatior)"
observable = "Ragweed plant response rating"
testvalue = 0

[[record]]
structuresmiles = "CC(=O)Oc1c(C)nn(C)c(=O)c1-c1ccc(Cl)c2cc(C)oc12"
targetorsystem = "ragweed (common ragweed, Ambrosia elatior)"
observable = "Ragweed plant response rating"
testvalue = 10

[[record]]
structuresmiles = "Cn1nc(Cl)c(O)c(-c2cccc3[nH]nnc23)c1=O"
targetorsystem = "ragweed (common ragweed, Ambrosia elatior)"
observable = "Ragweed plant response rating"
testvalue = 0

[[record]]
structuresmiles = "COC(=O)Oc1c(C)nn(C)c(=O)c1-c1ccc(Cl)c2cc(C)oc12"
targetorsystem = "ragweed (common ragweed, Ambrosia elatior)"
observable = "Ragweed plant response rating"
testvalue = 40

[[record]]
structuresmiles = "CCOC(=O)Oc1c(C)nn(C)c(=O)c1-c1c(C)sc2ncc(C)cc12"
targetorsystem = "ragweed (common ragweed, Ambrosia elatior)"
observable = "Ragweed plant response rating"
testvalue = 20

[[record]]
structuresmiles = "COC(=O)Oc1c(C)nn(C)c(=O)c1-c1c(C)ccc2cc(C)oc12"
targetorsystem = "ragweed (common ragweed, Ambrosia elatior)"
observable = "Ragweed plant response rating"
testvalue = 80

[[record]]
structuresmiles = "Cc1ccc2sc(Cl)cc2c1-c1c(O)c(C)nn(C)c1=O"
targetorsystem = "ragweed (common ragweed, Ambrosia elatior)"
observable = "Ragweed plant response rating"
testvalue = 100

[[record]]
structuresmiles = "CCc1sc2ncccc2c1-c1c(OC(=O)C2CC2)c(C)nn(C)c1=O"
targetorsystem = "ragweed (common ragweed, Ambrosia elatior)"
observable = "Ragweed plant response rating"
testvalue = 0

[[record]]
structuresmiles = "Cc1nn(C)c(=O)c(-c2ccc(Cl)c3ccsc23)c1O"
targetorsystem = "ragweed (common ragweed, Ambrosia elatior)"
observable = "Ragweed plant response rating"
testvalue = 30

[[record]]
structuresmiles = "CCC(=O)Oc1c(C)nn(C)c(=O)c1-c1c(Br)ccc2c1cnn2C"
targetorsystem = "ragweed (common ragweed, Ambrosia elatior)"
observable = "Ragweed plant response rating"
testvalue = 0

[[record]]
structuresmiles = "Cn1nc(Cl)c(O)c(-c2ccc(F)c3ccoc23)c1=O"
targetorsystem = "ragweed (common ragweed, Ambrosia elatior)"
observable = "Ragweed plant response rating"
testvalue = 90

[[record]]
structuresmiles = "CC(=O)Oc1c(C)nn(C)c(=O)c1-c1ccc(Cl)c2sccc12"
targetorsystem = "ragweed (common ragweed, Ambrosia elatior)"
observable = "Ragweed plant response rating"
testvalue = 0

[[record]]
structuresmiles = "Cc1ccc2ccoc2c1-c1c(O)c(C)nn(C)c1=O"
targetorsystem = "ragweed (common ragweed, Ambrosia elatior)"
observable = "Ragweed plant response rating"
testvalue = 90

[[record]]
structuresmiles = "CC(=O)Oc1c(Cl)nn(C)c(=O)c1-c1nccc2ccccc12"
targetorsystem = "ragweed (common ragweed, Ambrosia elatior)"
observable = "Ragweed plant response rating"
testvalue = 30

[[record]]
structuresmiles = "Cc1nn(C)c(=O)c(-c2ccc(Cl)c3sc(Br)cc23)c1O"
targetorsystem = "ragweed (common ragweed, Ambrosia elatior)"
observable = "Ragweed plant response rating"
testvalue = 0

[[record]]
structuresmiles = "CCC(=O)Oc1c(C)nn(C)c(=O)c1-c1ccc(Cl)c2ccsc12"
targetorsystem = "ragweed (common ragweed, Ambrosia elatior)"
observable = "Ragweed plant response rating"
testvalue = 0

[[record]]
structuresmiles = "Cc1nn(C)c(=O)c(-c2c(C)sc3ncccc23)c1O"
targetorsystem = "ragweed (common ragweed, Ambrosia elatior)"
observable = "Ragweed plant response rating"
testvalue = 0

[[record]]
structuresmiles = "COC(=O)Oc1c(C)nn(C)c(=O)c1-c1ccc(Cl)c2oc(C)cc12"
targetorsystem = "ragweed (common ragweed, Ambrosia elatior)"
observable = "Ragweed plant response rating"
testvalue = 30


Reference source: patent US10750743B2
